The reported numbers originate from patent US8178506B2.

Test system: leptin
Test: Leptin secretion by adipocytes (ELISA)
Assay type: cell-based, human
Details: adipocytes, 250 nM oligomeric compound, day nine post-transfection, relative to control (1.0); Table 16
In the oligonucleotide strings, read from the 5' end, every base follows the letter of its sugar. An asterisk marks phosphorothioate; unmarked linkages are phosphodiester. Other units and linkages are bracketed, terminal groups are in braces. A string of capitals states the bases alone. e = 2'-O-(2-methoxyethyl) (MOE); [5mC] = 5-methylcytosine
recordedMetric: Leptin (secretion)
Respond using a number only.

Briefly, Leptin (secretion) measured for 327926 (antisense eA*e[5mC]*eT*eA*eT*eG*e[5mC]*eA*eA*e[5mC]*e[5mC]*eT*eA*e[5mC]*eT*eA*e[5mC]*e[5mC]*eT*e[5mC]*eT) [compound 327926] : 1.47

Briefly, Leptin (secretion) measured for 327955 (antisense eG*e[5mC]*e[5mC]*e[5mC]*eT*eT*eT*e[5mC]*eA*eT*e[5mC]*eA*eT*eT*eG*e[5mC]*eA*e[5mC]*eT*eG) [compound 327955] : 1.22

Briefly, Leptin (secretion) measured for 327925 (antisense eT*eA*eG*e[5mC]*eT*eG*eG*eT*eT*eG*eA*eA*eG*eG*eG*eG*eA*e[5mC]*e[5mC]*eA*eA) [compound 327925] : 1.40

Briefly, Leptin (secretion) measured for 327930 (antisense eA*e[5mC]*eT*eA*eT*eA*e[5mC]*eA*eA*e[5mC]*e[5mC]*eT*e[5mC]*e[5mC]*eT*eA*e[5mC]*e[5mC]*eT*e[5mC]*eA) [compound 327930] : 0.95

Briefly, Leptin (secretion) measured for 327905 (antisense e[5mC]*eA*eG*eA*e[5mC]*eT*e[5mC]*e[5mC]*eG*eG*eT*eG*eG*eA*eA*eT*eG*eA*eA*eG*eG*eA) [compound 327905] : 1.62

Briefly, Leptin (secretion) measured for 327901 (antisense eT*eG*eA*eG*e[5mC]*eT*eA*e[5mC]*eA*eG*eT*eG*e[5mC]*eT*eT*e[5mC]*eA*eT*e[5mC]*eT*e[5mC]*eA) [compound 327901] : 1.02

Briefly, Leptin (secretion) measured for 327903 (antisense eA*eA*e[5mC]*eT*eA*eT*eA*e[5mC]*eA*eA*e[5mC]*e[5mC]*eT*eA*e[5mC]*eT*eA*e[5mC]*e[5mC]*eT*e[5mC]*eA) [compound 327903] : 1.61

Briefly, Leptin (secretion) measured for 327941 (antisense eA*eA*e[5mC]*e[5mC]*e[5mC]*eA*e[5mC]*e[5mC]*eG*eA*e[5mC]*eA*eG*e[5mC]*eA*eA*eT*eG*eA*eA*eT*eG*eT*eT) [compound 327941] : 0.54

Briefly, Leptin (secretion) measured for 327889 (antisense eG*eT*eG*eG*eT*eA*eA*eT*e[5mC]*e[5mC]*e[5mC]*eT*eG*eG*e[5mC]*eA*eA*eT*eG*eT*eG*eA*eT) [compound 327889] : 1.05

Briefly, Leptin (secretion) measured for 327931 (antisense eA*eA*e[5mC]*e[5mC]*eA*eT*eA*e[5mC]*eA*eA*e[5mC]*e[5mC]*eT*eA*e[5mC]*eT*eA*e[5mC]*e[5mC]*eT*e[5mC]*eA) [compound 327931] : 1.12

Briefly, Leptin (secretion) measured for 327890 (antisense eA*eG*e[5mC]*eA*e[5mC]*eA*eA*eA*e[5mC]*eT*eA*e[5mC]*eT*eA*e[5mC]*e[5mC]*eT*e[5mC]*eA) [compound 327890] : 1.36

Briefly, Leptin (secretion) measured for 327888 (antisense eA*eA*eT*eG*e[5mC]*e[5mC]*e[5mC]*e[5mC]*eT*eA*eA*eA*eA*eA*eT*e[5mC]*e[5mC]*eT*eT*eA*eT) [compound 327888] : 1.38

Briefly, Leptin (secretion) measured for 327893 (antisense eA*eA*e[5mC]*e[5mC]*eA*e[5mC]*eA*e[5mC]*eA*eA*e[5mC]*e[5mC]*eT*eA*e[5mC]*eT*eA*e[5mC]*e[5mC]*eT*e[5mC]*eA) [compound 327893] : 1.14

Briefly, Leptin (secretion) measured for 327922 (antisense eT*e[5mC]*eA*eG*eT*eT*eT*eT*eG*e[5mC]*eA*eT*eG*eG*eA*eT*eT*eT*eG*e[5mC]*eA*e[5mC]*eA) [compound 327922] : 1.25

====

Test system: HeLa cells
Experiment: Cell cycle assay in HeLa cells
Type: cell-based, human
Settings: HeLa cells, 150 nM oligomeric compound, 24 hours, relative to untreated control (UTC = 100)
In the oligonucleotide strings, read from the 5' end, every base follows the letter of its sugar. An asterisk marks phosphorothioate; unmarked linkages are phosphodiester. Other units and linkages are bracketed, terminal groups are in braces. A string of capitals states the bases alone. e = 2'-O-(2-methoxyethyl) (MOE); [5mC] = 5-methylcytosine; d = 2'-deoxy (DNA)
Rule: % cells in cell cycle phase S under 60% gives criterion not met, otherwise criterion met.

Problem: Has 338836 (antisense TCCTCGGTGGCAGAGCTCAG; all 2'-MOE, all phosphorothioate, methylation of C not given here) [compound 338836] a recorded % cells in cell cycle phase S greater than or equal to 60%?
Solution: criterion not met

Problem: Has 328362 (eT*eG*eT*eG*eT*dT*dT*dT*d[5mC]*dT*dG*dA*d[5mC]*dT*d[5mC]*eA*eG*eT*e[5mC]*eA) [compound 328362] a recorded % cells in cell cycle phase S greater than or equal to 60%?
Solution: criterion met

Problem: Has 327885 (antisense eA*e[5mC]*eT*eA*e[5mC]*e[5mC]*eT*eG*e[5mC]*eA*e[5mC]*eT*eG*eT*eA*eA*eG*e[5mC]*eA*e[5mC]*eT*eT*eT*eG) [compound 327885] a recorded % cells in cell cycle phase S greater than or equal to 60%?
Solution: criterion met

Problem: Has 328419 (antisense eT*eG*eT*eT*eG*d[5mC]*d[5mC]*dT*dA*dA*d[5mC]*dG*dA*dA*d[5mC]*eA*e[5mC]*eA*eG*eA) [compound 328419] a recorded % cells in cell cycle phase S greater than or equal to 60%?
Solution: criterion met

Problem: Has 338690 (antisense TAGACAAAAACAGACTCTGA; all 2'-MOE, all phosphorothioate, methylation of C not given here) [compound 338690] a recorded % cells in cell cycle phase S greater than or equal to 60%?
Solution: criterion met

====

Give % cells aneuploid for every item shown.
Test system: HeLa cells
Assay: Cell cycle assay in HeLa cells
Format: cell-based, human
Conditions: HeLa cells, 150 nM oligomeric compound, 24 hours, relative to untreated control (UTC = 100)
e = 2'-O-(2-methoxyethyl) (MOE); d = 2'-deoxy (DNA)
Please reply with the bare figure in % and do not write the unit itself.

Briefly, % cells aneuploid measured for 338690 (antisense TAGACAAAAACAGACTCTGA; all 2'-MOE, all phosphorothioate, methylation of C not given here) [compound 338690] : 194

Briefly, % cells aneuploid measured for 345373 (AGCCTATCCTGGATTACTTGAA; sugars from the 5' end e5 d10 e7, all phosphorothioate, methylation of C not given here) [compound 345373] : 68

Briefly, % cells aneuploid measured for 338713 (antisense ACCTCTCAGGAAGACGGACT; all 2'-MOE, all phosphorothioate, methylation of C not given here) [compound 338713] : 187

====

System: adipocytes
Assay: Triglyceride accumulation assay in adipocytes
Type: cell-based, human
Settings: Table 18; differentiating adipocytes; control = treatment with ISIS 342673
In the oligonucleotide strings, read from the 5' end, every base follows the letter of its sugar. An asterisk marks phosphorothioate; unmarked linkages are phosphodiester. Other units and linkages are bracketed, terminal groups are in braces. A string of capitals states the bases alone. e = 2'-O-(2-methoxyethyl) (MOE); [5mC] = 5-methylcytosine
recordedMetric: TG (triglyceride accumulation)

Briefly, TG (triglyceride accumulation) measured for 328107 (antisense e[5mC]*eT*eG*eT*eG*eA*e[5mC]*eT*eT*e[5mC]*eT*e[5mC]*eT*eA*eT*e[5mC]*eT*eG*e[5mC]*e[5mC]*eT) [compound 328107] : 66.7 percentage of control

Briefly, TG (triglyceride accumulation) measured for 328105 (antisense e[5mC]*e[5mC]*eT*e[5mC]*eA*eA*eT*eT*eA*eT*eT*eG*eG*eA*eA*eA*eT*e[5mC]*eA*e[5mC]*eA) [compound 328105] : 93.1 percentage of control

Briefly, TG (triglyceride accumulation) measured for 341804 (antisense ATCTGCACTGTCAGCACTTT; all 2'-MOE, all phosphorothioate, methylation of C not given here) [compound 341804] : 60.9 percentage of control

Briefly, TG (triglyceride accumulation) measured for 327912 (antisense eA*eA*e[5mC]*eT*eA*eT*eA*e[5mC]*eA*eA*eT*e[5mC]*eT*eA*e[5mC]*eT*eA*e[5mC]*e[5mC]*eT*e[5mC]*eA) [compound 327912] : 107.4 percentage of control

Briefly, TG (triglyceride accumulation) measured for 328112 (antisense eA*eT*e[5mC]*eA*eT*eT*eA*e[5mC]*eT*eG*eG*eA*eT*eT*eG*e[5mC]*eT*eG*eT*eA*eA) [compound 328112] : 98.1 percentage of control

Briefly, TG (triglyceride accumulation) measured for 341805 (antisense ACCCTTATCAGTTCTCCGTCCA; all 2'-MOE, all phosphorothioate, methylation of C not given here) [compound 341805] : 78.1 percentage of control

Briefly, TG (triglyceride accumulation) measured for 341807 (antisense CTGGGACTTTGTAGGCCAGTT; all 2'-MOE, all phosphorothioate, methylation of C not given here) [compound 341807] : 114.1 percentage of control

Briefly, TG (triglyceride accumulation) measured for 341803 (antisense CCACACACTTCCTTACATTCCA; all 2'-MOE, all phosphorothioate, methylation of C not given here) [compound 341803] : 85.9 percentage of control

Briefly, TG (triglyceride accumulation) measured for 328100 (antisense eA*eA*eT*e[5mC]*eT*e[5mC]*eT*eG*e[5mC]*eA*eG*eG*e[5mC]*eA*eA*eA*eT*eG*eT*eG*eA) [compound 328100] : 71.5 percentage of control
